- ASSAYED SYSTEM: fluorescent receptor NK2R-RF1 (construct pCEP4-NK2R-RF1): EGFP fused between the alpha7 signal peptide and the amino-terminal end of the rat NK2R receptor, expressed on HEK 293 cells (Aequorea victoria; rat) (UniProt P16610)
- MEASUREMENT DESCRIPTION: FRET saturation: amplitude of EGFP fluorescence extinction against NKA BO I concentration, cells expressing NK2R-RF1 (FIG. 13)
Where no end group is shown, it is not given here.
QUANTITY KIND: Kd (nM)

1) HKTDSFVGLM (peptide, UniProt P20366 98-107, looked up, also: BODIPY 530/550 IA label, site not given here, mature; HPLC-purified reaction product of NKA with BODIPY 530/550 IA; also called NKA BO 1; NKA-Bodipy derivative) [NKA BO I (neurokinin A labeled with BODIPY 530/550 IA)] : 24
